# Test Summary: melting temperature; melt of duplexes
# Assay Conditions: sodium 0.0675 M; strand 1 µM
Tm values for the substances below.
Your answer is read as °C, so omit the unit and give the number.

Worked examples follow.
Substance | Units Of Measure | Test Value
CGACGTGCCCGATGTGCTG+CAGCACATCAAGCACGTCG ((((((((..(((((((((+)))))))))..)))))))) | °C | 52.8
CGACGTGCCGAATGTGCTG+CAGCACATGAGGCACGTCG (((((((((..((((((((+))))))))..))))))))) | °C | 63.8
CGACGTGCGGAATGTGCTG+CAGCACATAGCGCACGTCG (((((((((..((((((((+))))))))..))))))))) | °C | 55.5
CGACGTGCTAGATGTGCTG+CAGCACATCTTGCACGTCG ((((((((.((((((((((+)))))))))).)))))))) | °C | 58.7
CGACGTGCAAGATGTGCTG+CAGCACATAGCGCACGTCG ((((((((...((((((((+))))))))...)))))))) | °C | 49.8
CGACGTGCCAGATGTGCTG+CAGCACATGGGGCACGTCG (((((((((..((((((((+))))))))..))))))))) | °C | 56.3
CGACGTGCTATATGTGCTG+CAGCACATGGCGCACGTCG ((((((((...((((((((+))))))))...)))))))) | °C | 48.5
CGACGTGCGTGATGTGCTG+CAGCACATCCAGCACGTCG ((((((((..(((((((((+)))))))))..)))))))) | °C | 55.5

Prompt line: Please give the measured Tm for this substance: CGACGTGCGATATGTGCTG+CAGCACATCATGCACGTCG ((((((((...((((((((+))))))))...))))))))
Response line: 50.1

Prompt line: Record request: Tm value, item CGACGTGCGGGATGTGCTG+CAGCACATGAGGCACGTCG ((((((((...((((((((+))))))))...))))))))
Response line: 51.9

Prompt line: Query: Tm; subject: CGACGTGCCGGATGTGCTG+CAGCACATAGCGCACGTCG ((((((((...((((((((+))))))))...))))))))
Response line: 49.9

Prompt line: Endpoint output: Tm of CGACGTGCTAGATGTGCTG+CAGCACATCCGGCACGTCG ((((((((..(((((((((+)))))))))..)))))))) . Value?
Response line: 55.4

Prompt line: Could you share which Tm value was measured for CGACGTGCCAGATGTGCTG+CAGCACATCTAGCACGTCG ((((((((.((((((((((+)))))))))).)))))))) ?
Response line: 56.8

Prompt line: Form field: reported Tm of CGACGTGCATCATGTGCTG+CAGCACATATTGCACGTCG (((((((((..((((((((+))))))))..)))))))))
Response line: 50.3

----------
Quick reference for Tm among some substances
# Test Summary: melting temperature; melt of duplexes
# Assay Conditions: sodium 0.0675 M; strand 1 µM
Respond numerically; units are °C and should not be typed.

Would you please look over these solved cases?
Substance | Test Readout | Test Value
CGACGTGCGCGATGTGCTG+CAGCACATAACGCACGTCG (((((((((..((((((((+))))))))..))))))))) | Tm | 54.4
CGACGTGCCATATGTGCTG+CAGCACATGCGGCACGTCG (((((((((..((((((((+))))))))..))))))))) | Tm | 54.1

Prompt line: For CGACGTGCGTGATGTGCTG+CAGCACATCGCGCACGTCG (((((((((.(((((((((+))))))))).))))))))) , what is its reported Tm?
Response line: 63.6

Prompt line: What does the data say about its Tm? Entry: CGACGTGCCGAATGTGCTG+CAGCACATCGTGCACGTCG ((((((((...((((((((+))))))))...))))))))
Response line: 51.9

Prompt line: Using the record for CGACGTGCACCATGTGCTG+CAGCACATGGTGCACGTCG (((((((((((((((((((+))))))))))))))))))) , report its Tm.
Response line: 65.2

Prompt line: Give the measured Tm of CGACGTGCCGAATGTGCTG+CAGCACATGGCGCACGTCG ((((((((...((((((((+))))))))...)))))))) .
Response line: 51.5

Prompt line: Form field: reported Tm of CGACGTGCTTGATGTGCTG+CAGCACATTTGGCACGTCG ((((((((...((((((((+))))))))...))))))))
Response line: 50.8

----------
# Test Summary: melting temperature; melt of duplexes
# Assay Conditions: sodium 0.0675 M; strand 1 µM
The reader will find reported Tm values listed item by item below.
Expressed in °C, but write only the number.

Substance | Test Value
CGACGTGCGGCATGTGCTG+CAGCACATAGTGCACGTCG ((((((((...((((((((+))))))))...)))))))) | 45.9
CGACGTGCTACATGTGCTG+CAGCACATATGGCACGTCG ((((((((.(.((((((((+)))))))).).)))))))) | 51.3
CGACGTGCCGGATGTGCTG+CAGCACATATGGCACGTCG (((((((((..((((((((+))))))))..))))))))) | 57.2
CGACGTGCCGTATGTGCTG+CAGCACATCTCGCACGTCG ((((((((...((((((((+))))))))...)))))))) | 48.5
CGACGTGCTGTATGTGCTG+CAGCACATGCGGCACGTCG ((((((((.(.((((((((+)))))))).).)))))))) | 55.7
CGACGTGCTCGATGTGCTG+CAGCACATTGGGCACGTCG ((((((((.(.((((((((+)))))))).).)))))))) | 55.7

Now for a further substance.
Prompt line: Entry CGACGTGCTTAATGTGCTG+CAGCACATGAAGCACGTCG ((((((((((.((((((((+)))))))).)))))))))) : reported Tm = ?
Response line: 57.4

----------
Listed here are substances together with their documented Tm.
# Test Summary: melting temperature; melt of duplexes
# Assay Conditions: sodium 0.0675 M; strand 1 µM
Numbers only here, please. The scale is °C.

Worked cases, answers included:
Substance | Units Of Measure | Test Value
CGACGTGCCCGATGTGCTG+CAGCACATGTTGCACGTCG ((((((((...((((((((+))))))))...)))))))) | °C | 48.1
CGACGTGCTTGATGTGCTG+CAGCACATACGGCACGTCG ((((((((...((((((((+))))))))...)))))))) | °C | 49.2
CGACGTGCAACATGTGCTG+CAGCACATCTGGCACGTCG ((((((((.(.((((((((+)))))))).).)))))))) | °C | 48.9
CGACGTGCCTGATGTGCTG+CAGCACATTTCGCACGTCG ((((((((...((((((((+))))))))...)))))))) | °C | 48.2
CGACGTGCCTGATGTGCTG+CAGCACATCTGGCACGTCG (((((((((.(((((((((+))))))))).))))))))) | °C | 61.1

Prompt line: Fill in the blank: the reported Tm of CGACGTGCTAGATGTGCTG+CAGCACATTCAGCACGTCG (((((((((..((((((((+))))))))..))))))))) is ____.
Response line: 52.8

Prompt line: // returns reported Tm for input CGACGTGCATAATGTGCTG+CAGCACATCACGCACGTCG ((((((((.(.((((((((+)))))))).).))))))))
Response line: 47.6

Prompt line: Quick one: Tm for CGACGTGCTCGATGTGCTG+CAGCACATGGCGCACGTCG ((((((((.(.((((((((+)))))))).).)))))))) ?
Response line: 50.8

Prompt line: Which Tm is listed for CGACGTGCCCAATGTGCTG+CAGCACATGATGCACGTCG ((((((((...((((((((+))))))))...)))))))) ?
Response line: 49.7

----------
Tm reference
# Test Summary: melting temperature; melt of duplexes
# Assay Conditions: sodium 0.0675 M; strand 1 µM
Hi! Could you send only the number? It should be in °C, unit omitted.

Substance | Test Readout | Test Value
CGACGTGCGCAATGTGCTG+CAGCACATTTAGCACGTCG ((((((((..(((((((((+)))))))))..)))))))) | Tm | 53
CGACGTGCCTTATGTGCTG+CAGCACATAACGCACGTCG ((((((((.((((((((((+)))))))))).)))))))) | Tm | 52.2
CGACGTGCGCAATGTGCTG+CAGCACATCACGCACGTCG (((((((((..((((((((+))))))))..))))))))) | Tm | 54
CGACGTGCCGTATGTGCTG+CAGCACATTATGCACGTCG ((((((((...((((((((+))))))))...)))))))) | Tm | 48.6
CGACGTGCAGGATGTGCTG+CAGCACATAGCGCACGTCG ((((((((...((((((((+))))))))...)))))))) | Tm | 49.6
CGACGTGCCGGATGTGCTG+CAGCACATCCGGCACGTCG (((((((((((((((((((+))))))))))))))))))) | Tm | 68.2

Prompt line: Tell me the measured Tm of CGACGTGCATGATGTGCTG+CAGCACATTCAGCACGTCG ((((((((...((((((((+))))))))...)))))))) , please.
Response line: 51.1

Prompt line: Which Tm value is on record for CGACGTGCAGAATGTGCTG+CAGCACATACAGCACGTCG ((((((((.(.((((((((+)))))))).).)))))))) ?
Response line: 52

Prompt line: Would you kindly share the measured Tm for CGACGTGCCAGATGTGCTG+CAGCACATGTCGCACGTCG ((((((((.(.((((((((+)))))))).).)))))))) ?
Response line: 49.7

Prompt line: Item under review: CGACGTGCACCATGTGCTG+CAGCACATTCAGCACGTCG ((((((((...((((((((+))))))))...)))))))) . Reported Tm?
Response line: 42.6

Prompt line: What Tm value was documented for this substance, CGACGTGCGAAATGTGCTG+CAGCACATGGAGCACGTCG ((((((((...((((((((+))))))))...)))))))) ?
Response line: 60.7
